- Test system: A2780
- Assay Info: Anti-proliferative effect (CellTiter-Glo, 72 h), A2780
- Type: cell-based
- Condition Parameters: A2780 cells, median, read-out: IC50 antiproliferation assay A2780 [M] (median)
The entries below are paired with their reported IC50.
Measured Parameter: IC50 (M)

Compound	Reported Result
Cc1c2c(nn1C)COCCCCn1c(C(=O)O)c(CCCOc3cccc4cc(F)ccc34)c3cccc-2c31 (single isomer, unassigned; enantiomer 1) [Example 303]	2.4e-05
COc1ccc2c(CCCOc3cccc4ccccc34)c(C(=O)O)n3c2c1-c1c(C)nn(C)c1COCCCC3 (single isomer, unassigned; enantiomer 2) [Example 353]	2.17e-05
Cn1nc2c(c1CN1CCOCC1)-c1cccc3c(CCCOc4cccc5ccccc45)c(C(=O)O)n(c13)CCCCOC2 (single isomer, unassigned; enantiomer 2) [Example 080]	2.41e-05
CCc1c2c(nn1C)COCCCCn1c(C(=O)O)c(CCCOc3cccc4cc(F)ccc34)c3cccc-2c31 (racemic) [Example 281]	1.39e-05
CCN(CC)S(=O)(=O)N1CCN(c2ccc(OCc3nn(C)c4c3-c3cccc5c(CCCOc6cccc7ccccc67)c(C(=O)O)n(c35)CCCCOC4)cc2)CC1 (single isomer, unassigned; enantiomer 1) [Example 1-4]	2.47e-06

----------
- Test system: SUDHL5
- Assay Info: Anti-proliferative effect (CellTiter-Glo, 72 h), SUDHL5
- Assay type: cell-based
- Condition Parameters: Homo sapiens, SU-DHL-5, 72 h, SUDHL5 cells, antiproliferation, 72 h incubation, median, read-out: Antiproli SUDHL5 [M] (median)

Compound	IC50 (M)
Cc1ccc2c(CCCOc3cccc4ccccc34)c(C(=O)O)n3c2c1-c1c(nn(C)c1C)COC/C=C\C3 (racemic)	2e-06
CCOCc1nn(C)c2c1-c1cccc3c(CCCOc4cccc5c4CCCC5)c(C(=O)O)n(c13)CCCCOC2 (single isomer, unassigned; enantiomer 1)	2.24e-06
Cc1c2c(nn1CCN1CCOCC1)COCCCCn1c(C(=O)O)c(CCCOc3cccc4cc(F)ccc34)c3cccc-2c31 (racemic)	2.82e-06
Cc1c2c(nn1CCN1CCOCC1)CN(C)CCCn1c(C(=O)O)c(CCCOc3cccc4ccccc34)c3cccc-2c31 (racemic)	6.96e-06
CCc1c2c(nn1C)COCCCCn1c(C(=O)O)c(CCCOc3cccc4ccccc34)c3cccc-2c31 (racemic)	3.06e-06
CC(C)OCc1nn(C)c2c1-c1cccc3c(CCCOc4cccc5ccccc45)c(C(=O)O)n(c13)CCCCN(C)C2 (racemic) [Example 1-73]	3.68e-06

----------
- Tested on: SUDHL10
IC50 values by entry

Compound	Unit Descriptor	Result Qualifier	IC50
CN1CCCn2c(C(=O)O)c(CCCOc3cccc4ccccc34)c3cccc(c32)-c2c(CCN3CCOCC3)nn(C)c2C1 (single isomer, unassigned; enantiomer 1) [Example 125]	µM	=	13.9
CCc1nn(C)c2c1-c1cccc3c(CCCOc4cccc5cc(C(F)(F)F)ccc45)c(C(=O)O)n(c13)CCCCOC2 (racemic) [Example 313]	µM	=	27.1
CCc1c2c(nn1C)COCCCCn1c(C(=O)O)c(CCCOc3cccc4cc(F)ccc34)c3cccc-2c31 (racemic) [Example 281]	µM	=	2.58
Cn1nc(CN2CCOCC2)c2c1COCCCCn1c(C(=O)O)c(CCCOc3cccc4ccccc34)c3cccc-2c31 (single isomer, unassigned; enantiomer 1) [Example 136]	µM	>	33

----------
- System: MCL-1 (Homo sapiens, UniProt Q07820)
- Sequence (Q07820 whole entry): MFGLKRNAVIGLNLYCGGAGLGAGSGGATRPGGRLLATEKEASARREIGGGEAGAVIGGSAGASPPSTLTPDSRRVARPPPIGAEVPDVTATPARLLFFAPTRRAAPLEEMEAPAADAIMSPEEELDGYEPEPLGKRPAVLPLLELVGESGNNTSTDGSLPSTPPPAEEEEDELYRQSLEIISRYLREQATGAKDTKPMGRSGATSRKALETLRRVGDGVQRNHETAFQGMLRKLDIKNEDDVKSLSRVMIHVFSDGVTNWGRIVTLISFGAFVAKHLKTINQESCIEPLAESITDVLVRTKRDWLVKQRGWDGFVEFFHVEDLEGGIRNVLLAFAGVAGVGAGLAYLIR
- Assay Info: Protein-protein interaction assay MCL-1/Noxa BH3 peptide (MCL-1 assay), TR-FRET
- Assay type: binding
- Condition Parameters: MBP-MCL-1 / Noxa BH3-derived peptide, median
Measured IC50 accompanies every entry in the list below.

Compound	Unit Descriptor	IC50
CN1CCCn2c(C(=O)O)c(CCCOc3cccc4ccccc34)c3cccc(c32)-c2c(CNCC(F)(F)F)nn(C)c2C1 (single isomer, unassigned; enantiomer 1) [Example 130]	nM	33.1
CCc1nn(C)c2c1-c1c(C)ccc3c(C(C)CCOc4cccc5ccccc45)c(C(=O)O)n(c13)CCCCOC2 (racemic) [Example 271]	nM	30.6
CN1CCCn2c(C(=O)O)c(CCCOc3cccc4ccccc34)c3cccc(c32)-c2c(COc3ccc(C4CCOCC4)cc3)nn(C)c2C1 (single isomer, unassigned) [Example 1-58]	nM	18.9
Cc1c2c(nn1C)COCCCCn1c(C(=O)O)c(CCCOc3cccc4cc(Cl)ccc34)c3cccc-2c31 (single isomer, unassigned) [Example 297]	nM	126
CCN(CC)S(=O)(=O)N1CCN(c2ccc(OCc3nn(C)c4c3-c3cccc5c(CCCOc6cccc7ccccc67)c(C(=O)O)n(c35)CCCCOC4)cc2)CC1 (single isomer, unassigned; enantiomer 1) [Example 1-4]	nM	304
Cn1nc(CN2CCOCC2)c2c1COCCCn1c(C(=O)O)c(CCCOc3cccc4ccccc34)c3cccc-2c31 (single isomer, unassigned; enantiomer 2) [Example 140]	nM	11.4
Cn1nc(CN)c2c1COCCCCn1c(C(=O)O)c(CCCOc3cccc4ccccc34)c3cccc-2c31 (racemic) [Example 338]	nM	48
COc1ccccc1-c1ncc(OCc2nn(C)c3c2-c2cccc4c(CCCOc5cccc6ccccc56)c(C(=O)O)n(c24)CCCN(C)C3)cn1 (single isomer, unassigned) [Example 1-92]	nM	6.8
Cc1c2c(nn1C)CCCCCCn1c(C(=O)O)c(CCCOc3cccc4ccccc34)c3cccc-2c31 (single isomer, unassigned; enantiomer 2) [Example 192]	nM	123
CCCc1nn(C)c2c1-c1c(C)ccc3c(CCCOc4cccc5ccccc45)c(C(=O)O)n(c13)CCCCOC2 (racemic) [Example 187]	nM	2.61
COCc1c2c(nn1C)COCCCCn1c(C(=O)O)c(CCCOc3cccc4ccccc34)c3cccc-2c31 (single isomer, unassigned; enantiomer 2) [Example 101]	nM	1.85
CN1CCCn2c(C(=O)O)c(CCCOc3cccc4ccccc34)c3cccc(c32)-c2c(CN3CCOCC3)nn(C)c2C1 (single isomer, unassigned; enantiomer 1) [Example 1-43]	nM	7.99
Cc1cc2c(OCCCc3c(C(=O)O)n4c5c(cccc35)-c3c(C)nn(C)c3COCCCC4)cccc2cc1F (single isomer, unassigned; enantiomer 1) [Example 050]	nM	8.82
Cc1nn(CC(F)(F)F)c2c1-c1cccc3c(CCCOc4cccc5ccccc45)c(C(=O)O)n(c13)C/C=C\COC2 (racemic) [Example 098]	nM	82.7
COc1c2c(nn1C)COCCCCn1c(C(=O)O)c(CCCOc3cccc4ccccc34)c3cccc-2c31 (single isomer, unassigned) [Example 209]	nM	25
CCCc1nn(C)c2c1-c1c(C)ccc3c(CCCOc4cccc5ccccc45)c(C(=O)O)n(c13)CCCN(C)C2 (racemic) [Example 193]	nM	2.33
Cc1nn(C)c2c1-c1cccc3c(CCCOc4ccc(F)c5ccccc45)c(C(=O)O)n(c13)CCCCOC2 (single isomer, unassigned; enantiomer 1) [Example 022]	nM	1.63
Cn1nc(CN2CCOCC2)c2c1COCCCn1c(C(=O)O)c(CCCOc3cccc4ccccc34)c3cccc-2c31 (single isomer, unassigned; enantiomer 1) [Example 139]	nM	42.2
Cn1nc(COc2ccc(NS(C)(=O)=O)cc2)c2c1COCCCCn1c(C(=O)O)c(CCCOc3cccc4ccccc34)c3cccc-2c31 (single isomer, unassigned; enantiomer 1) [Example 322]	nM	1080
COc1ccccc1-c1ncc(OCc2nn(C)c3c2-c2cccc4c(CCCOc5cccc6ccccc56)c(C(=O)O)n(c24)CCCN(C)C3)cn1 (single isomer, unassigned) [Example 1-91]	nM	10.2
Cc1nn(C)c2c1-c1cccc3c(CCCOc4cccc5ccccc45)c(C(=O)O)n(c13)CCCN(c1ccc(N3CCN(S(=O)(=O)N(C)C)CC3)cc1)C2 (single isomer, unassigned; enantiomer 1) [Example 1-106]	nM	16.3

----------
- Tested on: SUDHL10
- Assay Info: Induction of cytotoxicity (CellTiter-Glo, 5 h), SUDHL10
- Condition Parameters: read-out: Cytotox SUDHL10 [M] (median); SUDHL10 cells, cytotoxicity induction, CellTiter-Glo, 5 h, median

Compound	System	IC50
CCc1nn(C)c2c1-c1cccc3c(CCCOc4cccc5cc(F)ccc45)c(C(=O)O)n(c13)CCCCOC2 (single isomer, unassigned) [Example 289]	SUDHL10	> 3.3e-05 M
Cc1c2c(nn1C)COCCCCn1c(C(=O)O)c(CCCOc3cccc4cc(F)ccc34)c3cccc-2c31 (single isomer, unassigned; enantiomer 2) [Example 302]	SUDHL10	3.49e-06 M
Cn1nc(CN2CC3(COC3)C2)c2c1COCCCCn1c(C(=O)O)c(CCCOc3cccc4ccccc34)c3cccc-2c31 (single isomer, unassigned; enantiomer 1) [Example 344]	SUDHL10	> 3.3e-05 M
Cn1nc(CN2CC3(COC3)C2)c2c1COCCCCn1c(C(=O)O)c(CCCOc3cccc4ccccc34)c3cccc-2c31 (single isomer, unassigned; enantiomer 2) [Example 345]	SUDHL10	1.32e-05 M
Cc1nn(C)c2c1-c1cccc3c(CCCOc4cccc5ccccc45)c(C(=O)O)n(c13)CCCCOC2 (single isomer, unassigned; enantiomer 2)	SUDHL10	> 3.3e-05 M
Cc1c2c(nn1C)COCCCCn1c(C(=O)O)c(CCCOc3cccc4cc(F)ccc34)c3cccc-2c31 (single isomer, unassigned; enantiomer 1) [Example 303]	SUDHL10	> 3.3e-05 M
Cn1nc(COc2ccc(NS(C)(=O)=O)cc2)c2c1COCCCCn1c(C(=O)O)c(CCCOc3cccc4ccccc34)c3cccc-2c31 (single isomer, unassigned; enantiomer 2)	SUDHL10	> 3.3e-05 M
Cn1nc(CN2CCCC2)c2c1COCCCCn1c(C(=O)O)c(CCCOc3cccc4ccccc34)c3cccc-2c31 (single isomer, unassigned; enantiomer 2)	SUDHL10	> 3.3e-05 M
Cn1nc(COCc2ccc(C#N)cc2)c2c1COCCCCn1c(C(=O)O)c(CCCOc3cccc4ccccc34)c3cccc-2c31 (single isomer, unassigned; enantiomer 2)	SUDHL10	2.81e-05 M
COc1ccc2c(CCCOc3cccc4ccccc34)c(C(=O)O)n3c2c1-c1c(nn(C)c1C)COCCCC3 (single isomer, unassigned; enantiomer 2) [Example 351]	SUDHL10	> 3.3e-05 M
COc1ccc2c(CCCOc3cccc4ccccc34)c(C(=O)O)n3c2c1-c1c(C)nn(C)c1COCCCC3 (single isomer, unassigned; enantiomer 2)	SUDHL10	> 3.3e-05 M
